test: Pharmacokinetic study in rats, testosterone plasma concentrations after oral gavage; settings: testosterone in plasma; oral gavage; SD female rats; dose-normalized
Experimental endpoint: AUC0-24 h fold increase compared with TU group (fold)

[[record]]
compound = "CCCCCCCCCCCCCCCC(=O)OCC(COC(=O)CCCCCCCCCCCCCCC)OC(=O)CC(C)CCCCCCC(=O)Oc1cc(C)cc(C)c1C(C)(C)CC(=O)O[C@H]1CC[C@H]2[C@@H]3CCC4=CC(=O)CC[C@]4(C)[C@H]3CC[C@]12C (stereo partly drawn)"
reported_result = 106.4

[[record]]
compound = "CCCCCCCCCCCCCCCC(=O)OCC(COC(=O)CCCCCCCCCCCCCCC)OC(=O)CCCCC(=O)O[C@H]1CC[C@H]2[C@@H]3CCC4=CC(=O)CC[C@]4(C)[C@H]3CC[C@]12C"
reported_result = 12.4

[[record]]
compound = "CCCCCCCCCCC(=O)O[C@H]1CC[C@H]2[C@@H]3CCC4=CC(=O)CC[C@]4(C)[C@H]3CC[C@]12C [TU, testosterone undecanoate, reference compound]"
reported_result = 1.0


====

test: Pharmacokinetic study in greyhound dogs, testosterone plasma concentrations after oral administration; assay type: in vivo; details: oral capsules, greyhound dog, fasted state (n = 1), normalized to 2 mg/kg equivalent testosterone dose
Experimental endpoint: Cmax (nM)

[[record]]
structure_smiles = "CCCCCCCCCCCCCCCC(=O)OCC(COC(=O)CCCCCCCCCCCCCCC)OC(=O)CCCCCCCCC(=O)O[C@H]1CC[C@H]2[C@@H]3CCC4=CC(=O)CC[C@]4(C)[C@H]3CC[C@]12C"
reported_result = 386


====

assay: Pharmacokinetic study in rats, testosterone plasma concentrations after oral gavage; conditions: testosterone in plasma; oral gavage; conscious carotid artery cannulated SD female rats; normalized to 2 mg/kg equivalent testosterone dose
AUC0-24 h listing for selected compounds.
Experimental endpoint: AUC0-24 h (µM·h)

[[record]]
compound = "CCCCCCCCCCC(=O)O[C@H]1CC[C@H]2[C@@H]3CCC4=CC(=O)CC[C@]4(C)[C@H]3CC[C@]12C [TU, testosterone undecanoate, reference compound]"
reported_result = 0.0068

[[record]]
compound = "CCCCCCCCCCCCCCCC(=O)OCC(COC(=O)CCCCCCCCCCCCCCC)OC(=O)CCCCCCCCC(=O)O[C@H]1CC[C@H]2[C@@H]3CCC4=CC(=O)CC[C@]4(C)[C@H]3CC[C@]12C [Compound 13]"
reported_result = 0.1871

[[record]]
compound = "CCCCCCCCCCCCCCCC(=O)OCC(COC(=O)CCCCCCCCCCCCCCC)OC(=O)C(C)CCCCCCCC(=O)O[C@H]1CC[C@H]2[C@@H]3CCC4=CC(=O)CC[C@]4(C)[C@H]3CC[C@]12C (stereo partly drawn) [Compound 16]"
reported_result = 0.1076

[[record]]
compound = "CCCCCCCCCCCCCCCC(=O)OCC(COC(=O)CCCCCCCCCCCCCCC)OC(=O)CC(C)CC(=O)Oc1cc(C)cc(C)c1C(C)(C)CC(=O)O[C@H]1CC[C@H]2[C@@H]3CCC4=CC(=O)CC[C@]4(C)[C@H]3CC[C@]12C (stereo partly drawn) [Compound 25]"
reported_result = 0.3992

[[record]]
compound = "CCCCCCCCCCCCCCCC(=O)OCC(COC(=O)CCCCCCCCCCCCCCC)OC(=O)CC(C)CCCCCCC(=O)Oc1cc(C)cc(C)c1C(C)(C)CC(=O)O[C@H]1CC[C@H]2[C@@H]3CCC4=CC(=O)CC[C@]4(C)[C@H]3CC[C@]12C (stereo partly drawn) [Compound 27]"
reported_result = 0.7238

[[record]]
compound = "CCCCCCCCCCCCCCCC(=O)OCC(COC(=O)CCCCCCCCCCCCCCC)OC(=O)CCCCCCCCC(=O)Oc1cc(C)cc(C)c1C(C)(C)CC(=O)O[C@H]1CC[C@H]2[C@@H]3CCC4=CC(=O)CC[C@]4(C)[C@H]3CC[C@]12C [Compound 26]"
reported_result = 0.6173

[[record]]
compound = "CCCCCCCCCCCCCCCC(=O)OCC(COC(=O)CCCCCCCCCCCCCCC)OC(=O)CCCCC(=O)OCO[C@H]1CC[C@H]2[C@@H]3CCC4=CC(=O)CC[C@]4(C)[C@H]3CC[C@]12C [Compound 21]"
reported_result = 0.2994

[[record]]
compound = "CCCCCCCCCCCCCCCC(=O)OCC(COC(=O)CCCCCCCCCCCCCCC)OC(=O)CCCCC(=O)Oc1cc(C)cc(C)c1C(C)(C)CC(=O)O[C@H]1CC[C@H]2[C@@H]3CCC4=CC(=O)CC[C@]4(C)[C@H]3CC[C@]12C [Compound 22]"
reported_result = 0.2691

[[record]]
compound = "CCCCCCCCCCCCCCCC(=O)OCC(COC(=O)CCCCCCCCCCCCCCC)OC(=O)CCCCC(=O)O[C@H]1CC[C@H]2[C@@H]3CCC4=CC(=O)CC[C@]4(C)[C@H]3CC[C@]12C [Compound 11]"
reported_result = 0.0842


These measurements were taken from patent US11311512B2.
